experiment: Antiproliferative activity against human alpha-2 cells after 48 hrs by MTT assay; assay type: functional, cell-based
attributeMeasured: IC50 (µM)
Quick note: give the figure in µM, leave out the unit.

Briefly, IC50 measured for CC(C)(O)CCC[C@@](C)(O)[C@H]1CC[C@]2(C)[C@@H]1[C@H](O)C[C@@H]1[C@@]3(C)CC[C@H](OC(=O)[C@H](CCC(=O)OCc4ccccc4)NC(=O)OC(C)(C)C)C(C)(C)[C@@H]3CC[C@]12C : 28

Briefly, IC50 measured for C[C@H](N)C(=O)O[C@H]1CC[C@]2(C)[C@H]3C[C@@H](O)[C@@H]4[C@@H]([C@](C)(O)CCCC(C)(C)O)CC[C@@]4(C)[C@]3(C)CC[C@H]2C1(C)C : 11

Briefly, IC50 measured for CC[C@H](C)[C@H](NC(=O)OC(C)(C)C)C(=O)O[C@H]1CC[C@]2(C)[C@H]3C[C@@H](OC(=O)[C@@H](NC(=O)OC(C)(C)C)[C@@H](C)CC)[C@@H]4[C@@H]([C@](C)(O)CCCC(C)(C)O)CC[C@@]4(C)[C@]3(C)CC[C@H]2C1(C)C : 69

---

Parameter IC50: see the listing below.
assay: Antiproliferative activity against human BGC823 cells after 48 hrs by MTT assay; format: functional, cell-based; settings: BGC-823, 48 h
Quick note: give the figure in µM, leave out the unit.

smilesNotation: C[C@H](N)C(=O)O[C@@H]1C[C@@H]2[C@@]3(C)CC[C@H](O)C(C)(C)[C@@H]3CC[C@@]2(C)[C@]2(C)CC[C@H]([C@](C)(O)CCCC(C)(C)O)[C@@H]12
unitSpec: µM
IC50: 9
--
smilesNotation: CC(C)(O)CCC[C@@](C)(O)[C@H]1CC[C@]2(C)[C@@H]1[C@H](O)C[C@@H]1[C@@]3(C)CC[C@H](O)C(C)(C)[C@@H]3CC[C@]12C
unitSpec: µM
IC50: 46
--
smilesNotation: C[C@H](NC(=O)OC(C)(C)C)C(=O)O[C@@H]1C[C@@H]2[C@@]3(C)CC[C@H](O)C(C)(C)[C@@H]3CC[C@@]2(C)[C@]2(C)CC[C@H]([C@](C)(O)CCCC(C)(C)O)[C@@H]12
unitSpec: µM
IC50: 40
--
smilesNotation: CC(C)(O)CCC[C@@](C)(O)[C@H]1CC[C@]2(C)[C@@H]1[C@H](OC(=O)[C@H](Cc1ccc(O)cc1)NC(=O)OC(C)(C)C)C[C@@H]1[C@@]3(C)CC[C@H](O)C(C)(C)[C@@H]3CC[C@]12C
unitSpec: µM
IC50: 90

Briefly, IC50 measured for C[C@H](NC(=O)OC(C)(C)C)C(=O)O[C@H]1CC[C@]2(C)[C@H]3C[C@@H](O)[C@@H]4[C@@H]([C@](C)(O)CCCC(C)(C)O)CC[C@@]4(C)[C@]3(C)CC[C@H]2C1(C)C : 18

Briefly, IC50 measured for CC(C)(O)CCC[C@@](C)(O)[C@H]1CC[C@]2(C)[C@@H]1[C@H](O)C[C@@H]1[C@@]3(C)CC[C@H](OC(=O)[C@H](Cc4cnc[nH]4)NC(=O)OC(C)(C)C)C(C)(C)[C@@H]3CC[C@]12C : 27

---

assay: Antiproliferative activity against human BGC823 cells after 48 hrs by MTT assay; type: functional, cell-based; settings: BGC-823, 48 h
attributeMeasured: IC50 (µM)
Quick note: give the figure in µM, leave out the unit.

smilesNotation: C[C@H](N)C(=O)O[C@H]1CC[C@]2(C)[C@H]3C[C@@H](O)[C@@H]4[C@@H]([C@](C)(O)CCCC(C)(C)O)CC[C@@]4(C)[C@]3(C)CC[C@H]2C1(C)C
attributeMeasured: IC50
resultNumber: 7.9

Briefly, IC50 measured for CC(C)(O)CCC[C@@](C)(O)[C@H]1CC[C@]2(C)[C@@H]1[C@H](O)C[C@@H]1[C@@]3(C)CC[C@H](OC(=O)[C@H](Cc4ccc(O)cc4)NC(=O)OC(C)(C)C)C(C)(C)[C@@H]3CC[C@]12C : 37
